The origin of these recorded values is ChEMBL document CHEMBL5291721.

Consider the following AC50 values measured on Thromboxane A2 receptor (Homo sapiens).
Sequence (P21731 whole entry): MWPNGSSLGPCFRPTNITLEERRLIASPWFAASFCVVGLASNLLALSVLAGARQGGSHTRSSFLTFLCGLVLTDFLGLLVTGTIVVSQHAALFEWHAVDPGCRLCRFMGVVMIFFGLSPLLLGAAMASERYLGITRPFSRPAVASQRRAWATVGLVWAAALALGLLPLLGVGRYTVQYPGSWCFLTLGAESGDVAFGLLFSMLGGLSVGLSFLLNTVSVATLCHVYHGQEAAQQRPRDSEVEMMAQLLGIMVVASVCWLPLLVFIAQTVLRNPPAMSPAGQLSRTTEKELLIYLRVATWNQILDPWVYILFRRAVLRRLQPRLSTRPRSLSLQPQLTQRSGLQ

COc1cccc2c1C(=O)c1c(O)c3c(c(O)c1C2=O)C[C@@](O)(C(C)=O)C[C@@H]3O[C@H]1C[C@H](N)[C@H](O)[C@H](C)O1 ... 25 µM
CC(C)OC(=O)C(C(=O)OC(C)C)=C1SC=CS1 [MALOTILATE] ... > 30 µM

Item N=C(N)c1ccc2cc(OC(=O)c3ccc(N=C(N)N)cc3)ccc2c1 was tested on Thromboxane A2 receptor (Homo sapiens); the reported AC50 is > 30 µM

Item NC(=O)CCC/N=C(\c1ccc(Cl)cc1)c1cc(F)ccc1O [PROGABIDE] was tested on Thromboxane A2 receptor (Homo sapiens); the reported AC50 is > 10 µM

Item Cc1ccc(=O)n(-c2ccccc2)c1 was tested on Thromboxane A2 receptor (Homo sapiens); the reported AC50 is > 30 µM

Item CC(C)(C)NCC(O)c1cc(Cl)c(N)c(Cl)c1 (centres undefined) was tested on Thromboxane A2 receptor (Homo sapiens); the reported AC50 is > 30 µM

Item CCCOC(C(=O)OC1CCN(C)CC1)(c1ccccc1)c1ccccc1 was tested on Thromboxane A2 receptor (Homo sapiens); the reported AC50 is > 30 µM

Item Cc1ccc2c(-c3ccccc3)nc(=O)n(C(C)C)c2c1 was tested on Thromboxane A2 receptor (Homo sapiens); the reported AC50 is 11 µM

Item Nc1nc(O)c2ncn(COC(CO)CO)c2n1 was tested on Thromboxane A2 receptor (Homo sapiens); the reported AC50 is > 30 µM

###

molecular target: D(3) dopamine receptor (Homo sapiens); further: assay procedure not described here
Sequence (P35462 whole entry): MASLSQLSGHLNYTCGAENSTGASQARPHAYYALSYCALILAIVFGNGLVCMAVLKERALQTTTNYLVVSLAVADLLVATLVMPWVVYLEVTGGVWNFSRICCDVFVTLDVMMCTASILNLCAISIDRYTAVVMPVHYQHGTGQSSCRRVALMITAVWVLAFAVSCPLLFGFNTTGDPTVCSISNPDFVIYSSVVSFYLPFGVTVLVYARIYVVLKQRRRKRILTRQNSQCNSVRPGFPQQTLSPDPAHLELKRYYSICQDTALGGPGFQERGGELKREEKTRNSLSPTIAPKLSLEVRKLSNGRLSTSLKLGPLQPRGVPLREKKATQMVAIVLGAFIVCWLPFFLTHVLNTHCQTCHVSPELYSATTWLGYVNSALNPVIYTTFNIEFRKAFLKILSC
As shown below, each of these compounds has a reported AC50 value.

Item O=C1Nc2ccc(Cl)cc2C(c2ccccc2)=NC1O (centres undefined) was tested on D(3) dopamine receptor (Homo sapiens); the reported AC50 is > 10 µM

Item C[C@H]1C[C@H]2[C@@H]3CCC4=CC(=O)C=C[C@]4(C)[C@@]3(Cl)[C@@H](O)C[C@]2(C)[C@@]1(O)C(=O)CO was tested on D(3) dopamine receptor (Homo sapiens); the reported AC50 is > 10 µM

Item CC(=O)S[C@@H]1CC2=CC(=O)CC[C@]2(C)[C@H]2CC[C@@]3(C)[C@@H](CC[C@@]34CCC(=O)O4)[C@H]12 was tested on D(3) dopamine receptor (Homo sapiens); the reported AC50 is > 30 µM

Item Cc1ccc(NC(=O)C2(c3ccc4c(c3)OC(F)(F)O4)CC2)nc1-c1cccc(C(=O)O)c1 was tested on D(3) dopamine receptor (Homo sapiens); the reported AC50 is > 30 µM

Item CCCCCCOC(=O)CCC(=O)CN [HEXAMINOLEVULINATE] was tested on D(3) dopamine receptor (Homo sapiens); the reported AC50 is > 30 µM

Item CC(=O)OCC[N+](C)(C)C was tested on D(3) dopamine receptor (Homo sapiens); the reported AC50 is > 30 µM

Item C=CC(N)CCC(=O)O (centres undefined) was tested on D(3) dopamine receptor (Homo sapiens); the reported AC50 is > 30 µM

###

As shown below, each of these molecules has a reported AC50 value.
molecular target: Neurotensin receptor type 1 (Homo sapiens); further: assay procedure not described here
Sequence (P30989 whole entry): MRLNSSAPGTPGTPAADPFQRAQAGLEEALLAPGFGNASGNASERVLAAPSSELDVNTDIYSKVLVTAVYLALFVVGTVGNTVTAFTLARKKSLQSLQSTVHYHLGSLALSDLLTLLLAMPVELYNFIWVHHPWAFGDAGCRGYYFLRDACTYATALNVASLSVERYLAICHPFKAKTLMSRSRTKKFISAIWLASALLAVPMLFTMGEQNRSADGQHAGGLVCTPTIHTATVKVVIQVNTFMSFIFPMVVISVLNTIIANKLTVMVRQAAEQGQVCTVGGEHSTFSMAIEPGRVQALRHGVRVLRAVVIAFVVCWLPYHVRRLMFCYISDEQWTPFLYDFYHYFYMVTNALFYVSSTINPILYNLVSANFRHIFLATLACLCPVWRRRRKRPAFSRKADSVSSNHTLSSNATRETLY

Clc1cccc(Cl)c1N=C1NCCN1 ... > 30 µM
O=C(Nc1nc(-c2cc(Cl)cs2)c(N2CCN(C3CCCCC3)CC2)s1)c1cnc(N2CCC(C(=O)O)CC2)c(Cl)c1 ... > 10 µM
O=C1CN=C(c2ccccc2)c2cc(Cl)ccc2N1 ... 14 µM
C[C@H]1C[C@H]2[C@@H]3CCC4=CC(=O)C=C[C@]4(C)[C@@]3(Cl)[C@@H](O)C[C@]2(C)[C@@]1(O)C(=O)CO ... > 30 µM
CC(=O)OCC[N+](C)(C)C ... > 30 µM

Item O=C(O)c1ccccc1Nc1cccc(C(F)(F)F)c1 was tested on Neurotensin receptor type 1 (Homo sapiens); the reported AC50 is > 30 µM

Item COCCCOc1ccnc(C[S+]([O-])c2nc3ccccc3[nH]2)c1C (centres undefined) was tested on Neurotensin receptor type 1 (Homo sapiens); the reported AC50 is > 30 µM

Item CC(C)CC(N(C)C)C1(c2ccc(Cl)cc2)CCC1 (centres undefined) was tested on Neurotensin receptor type 1 (Homo sapiens); the reported AC50 is > 30 µM

Item CN1C[C@H](C(=O)N[C@]2(C)O[C@@]3(O)[C@@H]4CCCN4C(=O)[C@H](Cc4ccccc4)N3C2=O)C[C@@H]2c3cccc4[nH]cc(c34)C[C@H]21 [DIHYDROERGOTAMINE] was tested on Neurotensin receptor type 1 (Homo sapiens); the reported AC50 is > 30 µM

Item C[C@]1(COc2ccc(N3CCC(Oc4ccc(OC(F)(F)F)cc4)CC3)cc2)Cn2cc([N+](=O)[O-])nc2O1 was tested on Neurotensin receptor type 1 (Homo sapiens); the reported AC50 is > 30 µM

Item CC(CCc1ccccc1)NC(C)C(O)c1ccc(O)cc1 (centres undefined) was tested on Neurotensin receptor type 1 (Homo sapiens); the reported AC50 is > 30 µM

Item COc1ccc2c(c1)[C@]13CCCC[C@@H]1[C@H](C2)N(C)CC3 was tested on Neurotensin receptor type 1 (Homo sapiens); the reported AC50 is > 30 µM

Item COC(=O)[C@H](c1ccccc1Cl)N1CCc2sccc2C1 was tested on Neurotensin receptor type 1 (Homo sapiens); the reported AC50 is > 30 µM

Item Cc1cnc(NC(=O)C2=C(O)c3ccccc3S(=O)(=O)N2C)s1 was tested on Neurotensin receptor type 1 (Homo sapiens); the reported AC50 is > 30 µM
